# SUBJECT OF TEST: Penicillin-binding protein 2x (Streptococcus pneumoniae serotype 4 (strain ATCC BAA-334 / TIGR4), UniProt P14677)
# Sequence (P14677 whole entry): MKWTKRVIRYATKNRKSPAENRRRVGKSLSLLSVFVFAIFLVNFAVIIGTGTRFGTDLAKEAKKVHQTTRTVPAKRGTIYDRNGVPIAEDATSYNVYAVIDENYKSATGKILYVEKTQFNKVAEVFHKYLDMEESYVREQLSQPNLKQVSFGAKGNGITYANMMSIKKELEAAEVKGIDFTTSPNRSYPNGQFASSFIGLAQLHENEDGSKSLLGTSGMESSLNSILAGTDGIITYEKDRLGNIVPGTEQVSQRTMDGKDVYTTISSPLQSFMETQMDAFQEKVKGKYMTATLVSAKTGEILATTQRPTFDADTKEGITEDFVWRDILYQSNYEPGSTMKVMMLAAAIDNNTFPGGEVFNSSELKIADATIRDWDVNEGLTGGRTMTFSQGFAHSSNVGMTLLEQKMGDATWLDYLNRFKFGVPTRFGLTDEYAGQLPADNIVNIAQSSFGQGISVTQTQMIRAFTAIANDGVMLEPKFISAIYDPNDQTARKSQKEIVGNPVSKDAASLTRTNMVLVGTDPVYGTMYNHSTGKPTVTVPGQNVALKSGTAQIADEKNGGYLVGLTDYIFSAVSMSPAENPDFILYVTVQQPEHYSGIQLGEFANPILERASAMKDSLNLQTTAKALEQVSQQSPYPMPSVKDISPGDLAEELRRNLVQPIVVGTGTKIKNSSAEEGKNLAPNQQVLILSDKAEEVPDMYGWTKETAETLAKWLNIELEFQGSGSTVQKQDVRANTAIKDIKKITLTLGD
# TEST DESCRIPTION: Displacement of Biocillin FL from Streptococcus pneumoniae 1076 PBP2X
pIC50: −log10 of the molar value.
ENDPOINT: pIC50

[
  {
    "MOLECULE": "CC1(C)S[C@@H]2[C@H](NC(=O)Cc3ccccc3)C(=O)N2[C@H]1C(=O)O",
    "ENDPOINT": "pIC50",
    "NUMERIC READOUT": 7.52
  },
  {
    "MOLECULE": "C[C@@H](O)[C@H]1C(=O)N2C(C(=O)O)=C([C@H]3CCCO3)S[C@H]12",
    "ENDPOINT": "pIC50",
    "NUMERIC READOUT": 6.66
  },
  {
    "MOLECULE": "CO/N=C(\\C(=O)N[C@@H]1C(=O)N2C(C(=O)O)=C(COC(N)=O)CS[C@H]12)c1ccco1",
    "ENDPOINT": "pIC50",
    "NUMERIC READOUT": 8.33
  },
  {
    "MOLECULE": "CC1(C)S[C@@H]2[C@H](NC(=O)[C@H](N)c3ccc(O)cc3)C(=O)N2[C@H]1C(=O)O",
    "ENDPOINT": "pIC50",
    "NUMERIC READOUT": 6.99
  },
  {
    "MOLECULE": "C[C@@H](O)[C@H]1C(=O)N2C(C(=O)O)=C(SCCNC=N)C[C@H]12 [IMIPENEM ANHYDROUS]",
    "ENDPOINT": "pIC50",
    "NUMERIC READOUT": 6.71
  }
]
